- Test system: CCRF-CEM
- assay overview: Inhibition of RNA synthesis in human CEM cells assessed as BrU incorporation using propidium iodide staining at 5 times IC50 concentration after 24 hrs by flow cytometry
- Format: functional
- Set-up: scale not given: the % may be the effect or the level left
# note: exactly 2% is not below, so it is Criterion not met; use Criterion met for Activity strictly under it

Observe how each entry below is paired with its result.
molecule	assigned class
Nc1nc2[nH]cnc2c(=S)[nH]1	Criterion not met
Nc1nc(F)nc2c1ncn2[C@@H]1O[C@H](CO)[C@@H](O)[C@@H]1O	Criterion not met
CCCCCCCCOC(c1ccc([N+](=O)[O-])cc1)c1cn([C@@H]2O[C@H](CO)[C@@H](O)[C@H]2O)c(=O)[nH]c1=O (stereo in doubt; (-)-8h)	Criterion met

Ask: hey, is Activity for CCCCCCCCOC(c1ccc([N+](=O)[O-])cc1)c1cn([C@@H]2O[C@H](CO)[C@@H](O)[C@H]2O)c(=O)[nH]c1=O (single isomer, unassigned; (+)) lower than 2% or not?
Reply: Criterion met

Ask: hey, is Activity for CCCCCCCCCOC(c1ccc([N+](=O)[O-])cc1)c1cn([C@@H]2O[C@H](CO)[C@@H](O)[C@H]2O)c(=O)[nH]c1=O (stereo in doubt; (+)-7i) lower than 2% or not?
Reply: Criterion met

Ask: hey, is Activity for CCCCCCCCCOC(c1ccc([N+](=O)[O-])cc1)c1cn([C@@H]2O[C@H](CO)[C@@H](O)[C@H]2O)c(=O)[nH]c1=O (single isomer, unassigned; (-)) lower than 2% or not?
Reply: Criterion met
